Where do the numbers come from? From BindingDB's records for doi:10.1074/jbc.M113.532804.

Biological target: Enoyl-[acyl-carrier-protein] reductase [NADPH] FabI (Staphylococcus aureus (strain NCTC 8325 / PS 47))
Sequence (Q2FZQ3 whole entry): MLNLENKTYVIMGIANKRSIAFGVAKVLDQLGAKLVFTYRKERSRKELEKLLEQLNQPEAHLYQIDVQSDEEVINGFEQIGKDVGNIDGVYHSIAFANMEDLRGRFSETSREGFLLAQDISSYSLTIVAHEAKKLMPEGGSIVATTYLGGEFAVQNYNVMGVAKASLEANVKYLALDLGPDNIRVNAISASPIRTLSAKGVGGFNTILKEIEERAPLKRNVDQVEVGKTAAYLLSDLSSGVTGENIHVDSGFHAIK
Assay: Inhibition Kinetics Assay
Conditions: pH 7.5
Experimental: Kinetics were performed on a Cary 100 spectrophotometer (Varian) at 20 °C.
pKi: −log10 of the molar value.
Answer FALSE if pKi is under 8, and TRUE if it is 8 or more.

Cc1c(N)cccc1Cn1ccc(OCCc2cccs2)cc1=O ... TRUE
CCCCCc1ccn(Cc2ccccc2C#N)c(=O)c1 ... FALSE
CCCCCCc1ccn(Cc2cccc(N)c2C)c(=O)c1 ... TRUE
Cc1ccn(Cc2ccccc2Cl)c(=O)c1 ... FALSE
CCCCCCc1ccc(Oc2ccccc2)c(=O)[nH]1 ... FALSE
CCCCCCc1cc(=O)c(Oc2ccccc2C)cn1C ... TRUE

Let's switch to this molecule now.
Prompt: In plain terms: is recorded pKi at least 8 for CCCCCCc1ccn(Cc2ccccc2)c(=O)c1 ?
Completion: FALSE
